Reference source for all entries: patent US20220117938A1

# System: Ninety four (94) cell lines and PBMC
# assay-method-text: Cell viability assay, SRB staining, 94 cell lines and PBMC (Example 7, Experiment 2)
# Type: cell-based
# measurement-setup: Homo sapiens, CAKI-1, CAKI1, kidney
Measured IC50 values are reported for all entries that follow.

| compound | unit-name | IC50 |
| --- | --- | --- |
| [N-]=[N+]=CC(=O)CC[C@H](N)C(=O)O [DON, 6-Diazo-5-oxo-L-norleucine, reference compound] | µM | 1.62 |
| CC(=O)N[C@@H](Cc1c[nH]c2ccccc12)C(=O)N[C@@H](CCC(=O)C=[N+]=[N-])C(=O)OC(C)C | µM | 6.84 |
